B1: CDKL4 (parent)
chain: AVKKFVESEDDPVVKKIALREIRM

# Variants of: B1
# PROTOCOL DETAILS: protein stability index of a GFP-peptide fusion (GPS, HEK-293T) (PSI 1-6); higher = more stable;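 also: lentivirally expressed fusions sorted by FACS into six bins by GFP to DsRed ratio, PSI derived from sequencing read proportions per bin multiplied by bin number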
# CONDITION CONTEXT: c terminus: a fixed tail appended

MUTATION DESCRIPTOR | protein stability index
V14T | 3.26
P12T | 2.76
V6P | 3.78
D10F | 1.77
E7C | 2.36
P12K | 3.23
A1D | 3.75
K3P | 3.02
F5V | 3.81
V6T | 3.16
D11G | 1.8
I17Q | 3.46
V13K | 3.27
D11K | 3.22
P12H | 2.77
V14E | 4.1
A18Q | 3.79
F5M | 3.33
M24G | 3.07
S8K | 3.15
V13S | 3.48
I22V | 2.57
